Test system: HCT-116
Assay: NCI tumour cell line growth inhibition, 48 h
Calls of active or inactive are those of the source. No stated cut-off is given here; in the data, active = GI50 up to about 1.1 µM and inactive = higher.
# valid calls are active, inactive; nothing else

Data request: Called result for `O=S(=O)(O)c1ccc(/N=N\c2ccc(/N=N/c3ccc(/C=C/c4ccc(/N=[N+](\[O-])c5ccc(/C=C/c6ccc(/N=N/c7ccc(/N=N/c8ccc(S(=O)(=O)O)cc8)c8ccccc78)cc6S(=O)(=O)O)c(S(=O)(=O)O)c5)cc4S(=O)(=O)O)c(S(=O)(=O)O)c3)c3ccccc23)cc1`
Data returned: inactive

Data request: Lab log entry: CCOC(OC1=C(C#N)CCCC1)C(CC)[Se]c1ccccc1 (centres undefined) — outcome as called in the assay?
Data returned: inactive

Data request: Each molecule tested received a call. Report the one for COc1cccc2c1C(=O)c1c(O)c3c(c(O)c1C2=O)C[C@@](O)(C(C)=O)CC3OC1CC(OC2CC(N)C(O)C(C)O2)C(O)C(C)O1 (some centres undefined) .
Data returned: inactive

Data request: For this molecule, state the assay outcome: Cc1ccc([N+](=O)[O-])cc1S(=O)(=O)Nc1ccc(C2=NN(c3ccc([N+](=O)[O-])cc3[N+](=O)[O-])C(c3ccccc3O)C2)cc1 (centres undefined)
Data returned: inactive

Data request: Returns: the outcome recorded for `COC(=O)CN1Cc2cc(C)cc(c2O)CN(CC(=O)OC)Cc2cc(C)cc(c2O)CN(CC(=O)OC)Cc2cc(C)cc(c2O)C1` in this assay.
Data returned: inactive

Data request: Please let me know the test result on file for `O=C1CSc2ccncc2N1` .
Data returned: inactive

Data request: Please let me know the test result on file for C=C1CC(C/C=C(\C)CC2CC(=C)C(=O)O2)OC1=O (centres undefined) .
Data returned: inactive

Data request: Name the outcome recorded for COC(=O)C1=C(C(=O)OC)C2(C)CCC(=O)C1O2 (centres undefined) in the assay.
Data returned: inactive

Data request: Outcome logged for O=C(OCC(OC(=O)c1ccccc1)C1CC(C(O)C2CCCCC2)C(=O)O1)c1ccccc1 (centres undefined) in this assay:
Data returned: inactive

Data request: What did this assay record as the result for `CCOC(=O)CC(=O)CSc1c(-c2ccccc2)c(=O)n(-c2ccccc2)c(=S)n1-c1ccccc1` ?
Data returned: inactive

Data request: Would you mind telling me which call this test gave `CSc1cc(Cl)c(C)cc1S(=O)(=O)NC(=O)NNc1ccc(F)c(Cl)c1` ?
Data returned: inactive

Data request: In this assay, the call recorded for `COc1ccc2[nH]cc(CCNC(=O)[C@H](Cc3ccc(O)cc3)NC(=O)[C@@H](NCC(F)(F)F)C(C)C)c2c1` was what?
Data returned: inactive

Data request: Test call, this molecule: `Cc1ccc(Nc2n[nH]c(NS(=O)(=O)c3cc(C(=O)Nc4ccc(Cl)cc4)c(Cl)cc3S)n2)cc1`
Data returned: inactive

Data request: Hi, sorry to bother you, what did the test record for `NC(=O)NNC(=O)NC12CC3CC(CC(C3)C1)C2` ?
Data returned: inactive

Data request: Recorded test call requested for `Cc1ccc(S(=O)(=O)c2c(N)c3nc4ccccc4n3c3nc4ccccc4nc23)cc1`
Data returned: inactive

Data request: Hi team, can someone confirm the assay call for COC1=C(C)C(=O)C2=C(C1=O)C1C3CC4=C(C(=O)C(OC)=C(C)C4=O)C(CNC(=O)C(C)O)N3C(C#N)C(C2)N1C (centres undefined) ?
Data returned: active

Data request: So what was the verdict on `CCN(CC)C(=S)/N=C(\SC(=S)N(CC)CC)c1ccccc1` in this test?
Data returned: inactive

Data request: Name the outcome recorded for `COc1ccc(-n2c3c(c4cc(O)ccc42)Cc2ccccc2C3=O)cc1` in the assay.
Data returned: inactive

Data request: Record lookup: outcome of this test for `CC(C)C[C@H](NC(=O)CCc1cccc2ccccc12)B(O)O` ?
Data returned: active

Data request: Which outcome did this test record for the molecule `Cc1ccc(NC(=O)CC(=O)n2nc(-c3ccccc3)c(/N=N/c3ccccc3Cl)c2-c2ccccc2)cc1` ?
Data returned: inactive

Data request: Given `COc1cc(/C=C/C(=O)C(C)(C)C)cc(OC)c1OC` , state the outcome it received in this test.
Data returned: inactive

Data request: How did this test come out for `Clc1cc(-c2ccccc2)nc2ccccc12` ?
Data returned: inactive

Data request: Test call, this molecule: `COc1cc2c(cc1OC)C(=O)N(c1ccc(OCCN3CCCC3)cc1)C2`
Data returned: inactive

Data request: Returns: the outcome recorded for `CC(/C=C/C(=O)c1sc(C(N)=S)nc1C)=C\c1ccccc1` in this assay.
Data returned: inactive

Data request: Recorded test call requested for CC(NNC(=O)c1cc[n+]([BH2-]C#N)cc1)c1cccc(C(F)(F)F)c1 (centres undefined)
Data returned: inactive

Data request: Dear all, I need the recorded test outcome for `CCOc1snc(C(Cl)(Cl)Cl)c1Cl` , thank you.
Data returned: inactive

Data request: Write down the call the test reported for this molecule. Item: `CN(C)CCn1c(=O)nc2c3c(c([N+](=O)[O-])ccc31)Nc1ccc(O)cc1-2`
Data returned: inactive

Data request: Entry `OCCN(C1=NCCN1)/[N+](=C/c1ccc(Cl)cc1)[CH-]c1ccc(Cl)cc1` : call = ?
Data returned: inactive

Data request: # outcome recorded in this test, key = `Cc1ccc(/N=N/c2c(O)ccc3ccccc23)c(C)c1`
Data returned: inactive

Data request: Any idea what this test logged for N=C(N)NCCCC(NC(=O)c1cccc2c(=O)c3ccccc3[nH]c12)C(=O)O (centres undefined) ?
Data returned: inactive

Data request: What did this assay record as the result for `O=C(/C=C/c1cccc2ccccc12)c1ccccc1Cl` ?
Data returned: inactive

Data request: Each molecule tested received a call. Report the one for `COc1ccc(C(=O)CC2=Nc3nnc(CCCCCCCc4nnc5n4C(=O)C(CC(=O)c4ccc(OC)cc4)=N5)n3C2=O)cc1` .
Data returned: inactive

Data request: Field: outcome | Entry: `CC1=C(C(=O)OC(C)(C)C)C(c2ccc([N+](=O)[O-])cc2)C(C(=O)OC(C)(C)C)=C(C)N1`
Data returned: inactive

Data request: What outcome does the record of this test show for OCC1C2CCC3(OCCO3)C12 (centres undefined) ?
Data returned: inactive

Data request: Called result for `Cc1cc(N2CCOCC2)nc2ccc(Cc3ccc4nc(N5CCOCC5)cc(C)c4c3)cc12`
Data returned: inactive

Data request: Please indicate how the test categorized `COc1ccc(N2C(=O)C(=O)N(c3ccc(/N=N\c4ccccc4)cc3)C2=S)cc1` .
Data returned: inactive

Data request: # fetch the recorded call for `CCC(=O)Nc1ccc(NCC(=O)Nc2ccc(Cl)cc2)cc1` here
Data returned: inactive

Data request: Recorded call for N=C(N)C(/N=N\c1ccccc1)C(=N)N (centres undefined) ?
Data returned: inactive

Data request: Which result was noted for this molecule in the test: COC(=O)C(Cc1cc(OC)c(OC)c(OC)c1)c1ccc(OC)cc1 (centres undefined)
Data returned: inactive

* * *

System: MDA-N
Assay: NCI tumour cell line growth inhibition, 48 h
The source made the active and inactive calls. No stated cut-off is given here; in the data, active = GI50 up to about 1.1 µM and inactive = higher.
What GI50 was measured for each of the following?

Data request: Assign GI50 to the following record: `O=C1c2ccccc2CC12Cc1ccccc1C2`
Data returned: 56.4 µM (inactive)

Data request: For the compound COC(=O)C1CCC(=O)N1C(c1ccccc1)c1cc(OC)c(OC)c(OC)c1 (stereo not drawn) , give its reported GI50.
Data returned: 21.8 µM (inactive)

Data request: Return reported GI50. Input compound: `COc1c(OC)c(OC)c(C(=O)/C=C/c2ccccc2)c(OC)c1OC`
Data returned: 5.51 µM (inactive)

Data request: Identify measured GI50 corresponding to `CC(C)C[C@H](NC(=O)CCc1cccc2ccccc12)B(O)O`
Data returned: 0.452 µM (active)

Data request: Give the reported value of GI50 for this record: `Cc1cc(N2CCOCC2)nc2ccc(Cc3ccc4nc(N5CCOCC5)cc(C)c4c3)cc12`
Data returned: 36.6 µM (inactive)

Data request: For the compound `Cc1cc(N(CCC#N)CCC#N)ccc1C(/N=N/c1ccc(C(=O)O)cc1)=N\NC(=O)c1ccccc1` , give its reported GI50.
Data returned: 4.31 µM (inactive)

Data request: Provide one value: measured GI50 of `[O-]/[N+](=N\c1ccccc1CO)c1ccccc1CO`
Data returned: > 100 µM (inactive)

Data request: For the compound `CC[C@H]1C=CCC[C@@]2(C[C@@H]3CC[C@H]4[C@@H](C(=O)OCCCCCCCCCCCCCCCC(=O)N(CCCN)C[C@@H](O)CCN)[C@@]5(CCC[C@@H](C)O5)NC(=[N+]34)N2)O1` , give its reported GI50.
Data returned: 1.66 µM (inactive)

* * *

Exercise: for every item that follows, state its recorded GI50.
Test system: M19-MEL
Experiment: NCI tumour cell line growth inhibition, 48 h
The source made the active and inactive calls. Cut-off read from the data, not from the text of the source: active = GI50 up to about 1.1 µM and inactive = higher.

Data request: Give GI50; test system M19-MEL; compound O=c1[nH]c(=O)n(C2CC(O)C(CO)O2)cc1C(F)(C(F)(F)F)C(F)(F)F (configuration not stated)
Data returned: > 100 µM (inactive)

Data request: # lookup: M19-MEL GI50, key = `O=C(Cc1c(C(=O)Nc2ccccc2)sc(C(=O)Nc2ccccc2)c1CC(=O)Nc1ccccc1)Nc1ccccc1`
Data returned: > 100 µM (inactive)

Data request: Give GI50 for `CC(/C=C/C(=O)c1sc(C(N)=S)nc1C)=C\c1ccccc1` tested on M19-MEL.
Data returned: > 100 µM (inactive)

Data request: Please indicate recorded GI50 of `Cc1ccc(S(=O)(=O)c2c(N)c3nc4ccccc4n3c3nc4ccccc4nc23)cc1` measured with M19-MEL.
Data returned: > 100 µM (inactive)

Data request: For M19-MEL, give the measured GI50 of the entry COC(=O)C(=O)C(C(=O)C=C(C)C)C(=O)C(=O)Nc1ccc(C)cc1C (configuration not stated)
Data returned: > 100 µM (inactive)

Data request: Provide M19-MEL GI50 reading for `CC/C(=N\NS(=O)(=O)c1ccccc1)c1ccccc1` .
Data returned: > 100 µM (inactive)

Data request: Give reported GI50 for `O=C(O)Cc1cccc2c1Oc1ccccc1S2` (M19-MEL)
Data returned: > 100 µM (inactive)

Data request: Give GI50 for this entry on M19-MEL: `O=C1NC(=O)C(C(=O)C(=O)Nc2ccc(Br)cc2)C(=O)N1`
Data returned: > 100 µM (inactive)

Data request: Give M19-MEL GI50 for the following compound: `O=C1C=CC2=[N+]([O-])C(c3ccccc3)(c3ccccc3)/C(=N\c3ccccc3)C2=C1`
Data returned: 1.77 µM (inactive)

Data request: Lab note: record GI50 of `CC[n+]1c(/C=C/c2ccc(N(CCCl)CCCl)cc2)ccc2cc(Br)ccc21` tested on M19-MEL.
Data returned: 1.2 µM (inactive)

Data request: Enter measured GI50, system M19-MEL, for the compound shown: `Cc1cc(Cl)ccc1NC(=O)C(=O)Cc1ccc([N+](=O)[O-])c([N+](=O)[O-])c1CC(=O)C(=O)Nc1ccc(Cl)cc1C`
Data returned: > 100 µM (inactive)

Data request: Give GI50 for this entry on M19-MEL: O=P(O)(O)C1CCCC(P(=O)(O)O)N1 (configuration not stated)
Data returned: > 100 µM (inactive)

Data request: Param request: GI50 | system M19-MEL | item `Cn1c(=O)c2[nH]cnc2n(CC(=O)O)c1=O`
Data returned: > 100 µM (inactive)

Data request: Return reported GI50 for target or system M19-MEL, item CCOC(=O)C1=C(C)N(C2OC(COC(=O)c3ccccc3)C(OC(=O)c3ccccc3)C2OC(=O)c2ccccc2)C(=S)NC1c1ccccc1 (configuration not stated) .
Data returned: 33.1 µM (inactive)

Data request: Look up and report measured GI50 (M19-MEL) for the following compound: `COC(=O)/C=C(\C(=O)OC)c1c2c3c(cc(OC)c(OC)c3c3ccccc13)CCN2C`
Data returned: 33 µM (inactive)

Data request: Tell me GI50 of `O=C(O)c1ccc([C@@H]2C(=O)N(O)[C@@H]3C=CC[C@@H]32)cc1` when tested on M19-MEL.
Data returned: > 100 µM (inactive)

Data request: Answer with GI50 of `COc1cc(/C=C/C(=O)C(C)(C)C)cc(OC)c1OC` measured for M19-MEL.
Data returned: 31.8 µM (inactive)
